- Test system: MCF7 breast
- protocol-description: NCI tumour cell line growth inhibition, 48 h
recorded-metric: GI50

Recorded results for 5 compounds are shown here.
[
  {
    "compound": "Nc1c(C(=O)Nc2ccccc2)sc2nc3c(cc12)CN(Cc1ccccc1)CC3",
    "GI50": "12100 nM"
  },
  {
    "compound": "O=C(OCCBr)c1ccc(Cl)c([N+](=O)[O-])c1",
    "GI50": "2510 nM"
  },
  {
    "compound": "COc1cc(C2CC(c3ccc(N(C)C)cc3)=NN2C(C)=O)cc(OC)c1OC (stereo unspecified)",
    "GI50": "577 nM"
  },
  {
    "compound": "CCCOc1nc(SCCC)nc2c1cnn2-c1ccccc1",
    "GI50": "> 100000 nM"
  },
  {
    "compound": "Cn1cc(-c2ccc(-c3cn(C)c4ccc(Cl)cc34)s2)c2cc(Cl)ccc21",
    "GI50": "> 100000 nM"
  }
]

Here is the next item to consider.
What measured GI50 goes with CCCCCCCOc1c(OC)cc(C2CC(=O)Nc3c2c(C)nn3-c2nc3ccccc3[nH]2)cc1OC (stereo unspecified) ?
2910 nM

All values here come from PubChem BioAssay (NCI).
